Target: T1, Human LILRB4/CD85k/ILT3 Protein (ECD, His Tag), Sino Biological (human, UniProt Q8NHJ6 22-259)
T1 construct: extracellular domain; It is not tied to this bought protein; also called LILRB4 protein; not shown: His tag
Test: ELISA, human LILRB4 ECD-His coated, HRP goat anti-human IgG Fc, OD450

>  <binder>
chimeric antibody 3G9-1 (antibody, V domains shown, Full chains are not tied by name) VH: QVQLQQPGAELVKPGASVKLSCKASGYTFTSYWMHWVKQRPGQGLEWIGEINPSNGRTNYNEKFKSKATLIVDKSSSTAYMQLSSLTSEDSAVYYCARGIYYGYDYAMDYWGQGTSVTVSS VL: DIQMTHTTSSLSASLGDRVTISCRASQDISNYLNWYQQKPDGTVKLLIYYTSRLHSGVPSRFSGSGSGTDYSLTISNLEQEDIATYFCQQGNTLPPTFGGGTKLEIK

>  <EC50 (read off the curve)>
~0.02 µg/mL

$$$$
>  <binder>
chimeric antibody 5E11-2 (antibody, V domains shown, Full chains are not tied by name) VH: EVKLEESGGGLVQPGGSMKLSCAASGFTFSDAWMDWVRQSPEKGLEWVAEIRSKPNNHATYYAESVKGRFTISRDDSKSSVYLQMNSLRAEDTGIYYCTRTTDYSMDYWGQGTSVTVSS VL: DIQMTQSPASLAVSLGQRATISCRASQSVSASSYSYMHWYQQKPGQPPKLLIKYASNLQSGVPARFSGSGSGTDFTLNIHPVEEEDSATYYCQHSWEIPRTFGGGTKLEIK

>  <EC50 (read off the curve)>
~0.05 µg/mL

$$$$
>  <binder>
chimeric antibody 3A2-18 (antibody, V domains shown, Full chains are not tied by name) VH: EVQLQQPGAELVKPGASVKLSCKASGYTFTSYWMHWVKQRPGQGLEWIGEINPSNGRTNYNEKFKSKATLTVDKSSSTAYVQLNSLTSEDSAVYYCARDRYDEGNAMDYWGQGTSVTVSS VL: DIVMTQTTSSLSASLGDRVTISCRASQDITNYLNWYQQKPDGTVKLLIYYTSRLHSGVPSRFSGSGSGTDYSLTISNLEQEDIATYFCQQGDTLPRTFGGGTKLEIK

>  <EC50 (read off the curve)>
~0.03 µg/mL

$$$$
>  <binder>
chimeric antibody 1A2-7 (antibody, V domains shown) VH: QVQLQQPGAELVKPGASVKLSCKASGYTFTSYWMHWVKQRPGQGLEWIGEINPSNGRTNYNEKFKSKATLTVDKSSSTAYMQLNSLTSEDSAVYYCARDRYDEGNAMDYWGQGTSVTVSS VL: DIVMTQTTSSLSASLGDRVTISCRASQDITNYLNWYQQKPDGTVKLLIYYTSRLHSGVPSRFSGSGSGTDYSLTISNLEQEDIATYFCQQGDTLPRTFGGGTKLEIK

>  <EC50 (read off the curve)>
~0.03 µg/mL

$$$$
